Test: self-splicing fitness, log relative to wild type (ln ratio); higher = more splicing; Tetrahymena group I intron in knt gene, E. coli kanamycin selection, DiMSum; sequences stand for … in CUCUCU…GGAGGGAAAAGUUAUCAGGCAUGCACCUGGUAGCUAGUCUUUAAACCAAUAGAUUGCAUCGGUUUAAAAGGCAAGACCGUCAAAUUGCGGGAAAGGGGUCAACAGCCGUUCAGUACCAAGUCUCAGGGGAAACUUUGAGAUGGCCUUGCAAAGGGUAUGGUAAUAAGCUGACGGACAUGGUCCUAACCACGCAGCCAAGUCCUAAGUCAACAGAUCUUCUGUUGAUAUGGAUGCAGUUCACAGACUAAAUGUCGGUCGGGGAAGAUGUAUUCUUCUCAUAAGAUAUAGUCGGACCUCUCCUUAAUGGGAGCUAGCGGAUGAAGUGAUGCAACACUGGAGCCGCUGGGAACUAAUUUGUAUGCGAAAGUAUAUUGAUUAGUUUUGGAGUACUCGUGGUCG;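 note: selection with 25 µg/mL kanamycin versus none on LB agar overnight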
Conditions: 37 °C
Reported self-splicing fitness (ln) values follow for various sequences
In your answer, state the number alone without any accompanying words.

- UGCGAGCAAUAUUACGUAUG: -2.29

Q: Quick one: self-splicing fitness (ln) of UCCAAGCAAUAUUACGUAGC ?
A: -1.38

Q: Dear colleague, I am looking for the recorded self-splicing fitness (ln) of the following sequence: AAAGAGCAAUAUUACGUUAA
A: -2.28

Q: Item CGAAAGCAAUAUUACGAUGG has what recorded self-splicing fitness (ln)?
A: 0.406

====

Test: self-splicing fitness, log relative to wild type (ln ratio); higher = more splicing; Tetrahymena group I intron in knt gene, E. coli kanamycin selection, DiMSum; sequences stand for … in CUCUCU…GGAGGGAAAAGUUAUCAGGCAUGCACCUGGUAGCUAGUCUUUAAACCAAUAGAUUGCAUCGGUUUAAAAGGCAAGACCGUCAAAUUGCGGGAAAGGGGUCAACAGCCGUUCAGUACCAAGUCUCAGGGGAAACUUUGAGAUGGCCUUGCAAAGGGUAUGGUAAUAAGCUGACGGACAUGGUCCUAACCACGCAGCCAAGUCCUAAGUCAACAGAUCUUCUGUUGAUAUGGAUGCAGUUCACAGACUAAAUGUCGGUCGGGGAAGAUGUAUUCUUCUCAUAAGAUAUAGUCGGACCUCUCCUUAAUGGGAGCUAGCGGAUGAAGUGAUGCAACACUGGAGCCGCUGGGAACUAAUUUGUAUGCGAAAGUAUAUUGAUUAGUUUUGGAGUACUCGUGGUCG
Settings: 30 °C
Class rule met: self-splicing fitness (ln) at least -3. Class rule not met: self-splicing fitness (ln) below -3.

Look over these answered cases.
- AAGUAGCAAUAUUACGCUGG: rule met
- GAAGAGCAAUAUUACGGCAU: rule met
- CACCAGCAAUAUUACGUUGC: rule not met
- GUGGAGCAAUAUUACGCGAC: rule met
- CCCAAGCAAUAUUACGUUUA: rule not met
- AUUUAGCAAUAUUACGACCA: rule met
- UACCAGCAAUAUUACGCAUU: rule met
- CGAGAGCAAUAUUACGAGGU: rule not met
- GGCAAGCAAUAUUACGCAUA: rule met
- GGUUAGCAAUAUUACGGGUU: rule met

Q: Does UCACAGCAAUAUUACGCAGG have a reported self-splicing fitness (ln) of at least -3?
A: rule not met

Q: Check if self-splicing fitness (ln) >= -3 (inclusive). Item: UGUUAGCAAUAUUACGAACC
A: rule met

Q: Does self-splicing fitness (ln) meet or surpass -3 for GCUCAGCAAUAUUACGAGGA ?
A: rule met

Q: Can CACAAGCAAUAUUACGUACC be said to have self-splicing fitness (ln) at or above -3?
A: rule not met

Q: # bool: self-splicing fitness (ln) of UGACAGCAAUAUUACGAUUC >= -3
A: rule not met

Data provenance is the supplement of paper PMC7877785.
